B1: CPEB3 Ribozyme (parent)
chain: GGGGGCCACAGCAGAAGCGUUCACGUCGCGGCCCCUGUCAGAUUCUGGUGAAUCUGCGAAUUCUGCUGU

Variants of: B1
Assay Protocol: self-cleavage, relative activity (ratio to wild type); higher = more cleavage; co-transcriptional
Measured Parameter: self-cleavage
The response must contain the number and no unit.

Known results for variants:
• GGGGGCCACAGCAGAAGCGUUCACGUCGCGGCCCCUGUAAGAUUCUGGUGAAUCUGCGAAUUCUGCCGU [C39A U67C] = 0.918
• GGGGGCCACAGCAGAAGCGUUCACGUCGCGGCCCCUGUCAGAUUGUGCUGAAUCUGCGAAUUCUGCUGU [C45G G48C] = 1.01
• GGGGGCCACAGCGGGAGCGUUCACGUCGCGGCCCCUGUCAGAUUCUGGUGAAUCUGCGAAUUCUGCUGU [A13G A15G] = 0.82
• GGGGGCCACAGCAGAAACGUUCACGUCGCGGCCCCUGUGAGAUUCUGGUGAAUCUGCGAAUUCUGCUGU [G17A C39G] = 0.216
• GGGGGCCACAGCAGAAGCGUUCACGUCGCGGCCCCUGUCAAAUUCUGGUGAAUCUUCGAAUUCUGCUGU [G41A G56U] = 0.307

Problem: Could you please provide reported self-cleavage for GGGGGCCACAGCGGAAGCGUUCACGUCGGGGCCCCUGUCAGAUUCUGGUGAAUCUGCGAAUUCUGCUGU [A13G C29G] ? Thanks!
Solution: 0.126

Problem: Supply recorded self-cleavage for GGGGGCCACAGCAGAAGCGUUCCCGUCGCGGCCCCUGUCAGAUUCUGGUGAAGCUGCGAAUUCUGCUGU [A23C U53G] here.
Solution: 0.81

Problem: Hello, please tell me recorded self-cleavage for this one: GGGGGCCACAGCAGAAGCGUUCACGUCGCGGCCCCCGUCAGAUUCUGGUGAAUCUGCGAAUUCUGAUGU [U36C C66A]
Solution: 0.603
